Please go through the items and note down their pIC50.
tested-on: CRBN-DDB1 (Homo sapiens)
Construct: 6xHis (given for the complex); made in house; host or cells: Sf9 cells (Invitrogen), pFastBac
assay-remarks: CRBN-DDB1 Ligand-Displacement AlphaScreen Assay (thalidomide competition);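 further: streptavidin donor and nickel chelate acceptor bead proximity signal after 30 min incubation, normalized with no-protein background as 0% and DMSO wells as 100% activity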
Assay type: binding
run-parameters: read-out: CRBN alpha IC50
// field semantics: pIC50 = negative decimal log of concentration (mol/L)

Request the reported pIC50 associated with O=C1CCC(N2C(=O)c3ccc([N+](=O)[O-])cc3C2=O)C(=O)N1 [Compound D-2]
5.38

Entry O=C1CCC(N2C(=O)c3ccc(NC(=O)CCl)cc3C2=O)C(=O)N1 (centres unmarked) : reported pIC50 = ?
7.67

Item under review: CC(C)Nc1cccc2c1C(=O)N(C1CCC(=O)NC1=O)C2=O (centres unmarked) . Reported pIC50?
7.60

Request the reported pIC50 associated with O=C1CCC(N2C(=O)c3cccc([N+](=O)[O-])c3C2=O)C(=O)N1 [Compound D-10]
5.49

Can you look up the measured pIC50 of CC(=O)NCc1cccc2c1C(=O)N(C1CCC(=O)NC1=O)C2=O (centres unmarked) for me?
6.19

For the compound CCN(CC)c1ccc2c(c1)C(=O)N(C1CCC(=O)NC1=O)C2=O (centres unmarked) , what pIC50 is on record?
6.70

// returns reported pIC50 for input CC(C)(C)OC(=O)NCCNc1cccc2c1C(=O)N(C1CCC(=O)NC1=O)C2=O (centres unmarked)
6.85

Given Cc1nc2ccccc2c(=O)n1C1CC(=O)NC1=O (centres unmarked) , state its recorded pIC50.
3.90

Entry O=C1CCC(N2C(=O)c3c(Cl)ccc(Cl)c3C2=O)C(=O)N1 (centres unmarked) has what pIC50?
5.93

Bench note: what pIC50 did COC(=O)COc1cccc2c1C(=O)N(C1CCC(=O)NC1=O)C2=O (centres unmarked) show?
5.95

# input compound: O=C1CCC(N2C(=O)c3cccc(CNC(=O)C4CC4)c3C2=O)C(=O)N1 (centres unmarked) ; wanted: its pIC50
6.43

----------
tested-on: BRD4 (Homo sapiens)
assay-remarks: BRD4 Cell Western (BRD4 levels in 293T cells, LiCOR)
Assay type: cell-based
Parameters: BRD4 levels in the cells after the dBET treatment; endogenous in cells
run-parameters: HEK-293T; read-out: BRD4 max degradation(%) Cell Western
API: label(entry) gives Condition met if the entry's Dmax is strictly smaller than 40%; on equality or larger values it gives Condition not met.

Lab note: confirm whether the reported Dmax for this compound is below 40%, equality not counting. compound: CC[C@@H]1C(=O)N(C)c2cnc(Nc3ccc(C(=O)NCCCCCCNC(=O)COc4cccc5c4C(=O)N(C4CCC(=O)NC4=O)C5=O)cc3OC)nc2N1C1CCCC1 (some centres unmarked)
Condition not met

Just wondering, is Dmax of Cc1sc2c(c1C)C(c1ccc(Cl)cc1)=N[C@@H](CC(=O)NCCCCCCNC(=O)COc1cccc3c1C(=O)N(C1CCC(=O)NC1=O)C3=O)c1nnc(C)n1-2 (some centres unmarked) below 40%?
Condition not met

Does this compound meet the criterion Dmax < 40%? Cc1sc2c(c1C)C(c1ccc(Cl)cc1)=N[C@@H](CC(=O)NCCNC(=O)COc1cccc3c1C(=O)N(C1CCC(=O)NC1=O)C3=O)c1nnc(C)n1-2 (some centres unmarked)
Condition met

Quick check: Dmax of CC[C@@H]1C(=O)N(C)c2cnc(Nc3ccc(C(=O)NCCCOCCOCCOCCCNC(=O)COc4cccc5c4C(=O)N(C4CCC(=O)NC4=O)C5=O)cc3OC)nc2N1C1CCCC1 (some centres unmarked) under 40%?
Condition met
